Origin of measurements: PubChem BioAssay (NCATS)

Assay: Quantitative High-Throughput drug screen in 47 multiple myeloma cell lines against the NCATS MIPE library collection: INA6_PLB cell viability assay (AID 1918965; note: nearly all actives have a fitted effect of over 55% in size)
Details: INA6 myeloma viability, CellTiter-Glo ATP luminescence, 48 h; series mostly up to 45.8 µM
Inconclusive results are not listed. The source made the active and inactive calls. Calls come from the whole dose curve; as a rule, active = well fitted cell-killing curve with a large enough effect; inconclusive = small, poorly fitted or top-dose-only effect, or effect the other way; inactive = no such curve, though single readings can be large or run the other way.
Response enum: active, inactive

Observe how each entry below is paired with its result.
- MOLECULE: "CC(C)(C)c1cc(NC(=O)Nc2ccc(-c3cn4c(n3)sc3cc(OCCN5CCOCC5)ccc34)cc2)no1"
  ASSIGNED LABEL: "active"
- MOLECULE: "CC[C@H]1CN2CCc3cc(OC)c(OC)cc3[C@H]2C[C@@H]1C[C@@H]1NCCc2cc(OC)c(OC)cc21"
  ASSIGNED LABEL: "active"
- MOLECULE: "C1Cc2[nH]nc(-c3nn[nH]n3)c2C1"
  ASSIGNED LABEL: "inactive"
- MOLECULE: "Cc1coc2c1C(=O)C(=O)c1c-2ccc2c1CCCC2(C)C"
  ASSIGNED LABEL: "active"
- MOLECULE: "Cc1nc2cnc3ccc(C#Cc4cccnc4)cc3c2n1-c1ccc(C(C)(C)C#N)cc1"
  ASSIGNED LABEL: "active"

Prompt: Answer briefly: the call reported for COc1ccc(-c2cc3c(C)nc(N)nc3n(C3CCC(OCCO)CC3)c2=O)cn1 (stereo not given) in this assay.
Response: active
